Target: T1, human PD-L1 (full-length, expressed on CHO cells) (human, UniProt Q9NZQ7 19-290)
T1 construct: also called huPD-L1; CD274
T1 sequence (Q9NZQ7 19-290): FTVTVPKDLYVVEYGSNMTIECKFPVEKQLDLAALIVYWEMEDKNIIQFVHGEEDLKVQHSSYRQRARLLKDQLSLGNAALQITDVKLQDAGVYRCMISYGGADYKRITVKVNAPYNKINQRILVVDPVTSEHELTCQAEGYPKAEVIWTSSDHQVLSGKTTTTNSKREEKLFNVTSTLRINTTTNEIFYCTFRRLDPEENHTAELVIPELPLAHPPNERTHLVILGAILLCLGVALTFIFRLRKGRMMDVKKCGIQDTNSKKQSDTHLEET
Assay: flow cytometry MFI at 33.3 nM relative to WT CD80 ECD-Fc (R&D), CHO/huPD-L1 cells
Record form. Attribute: Fold change to WT. Fill in for each entry.
Unit fold implied. Number only.

## Input Return Fold change to WT for the following binder: variant CD80 IgV-Fc E35D/M47I/E77A/L85Q/R94W (Fc fusion, not shown: a dimerising Fc or GST) VIHVTKEVKEVATLSCGHNVSVEELAQTRIYWQKDKKMVLTMMSGDINIWPEYKNRTIFDITNNLSIVILALRPSDAGTYECVVQKYEKDAFKWEHLAEVTLSVKAD
## Output 8.12

## Input Return Fold change to WT for the following binder: variant CD80 IgV-Fc E35D/M47L/L85Q (Fc fusion, not shown: a dimerising Fc or GST) VIHVTKEVKEVATLSCGHNVSVEELAQTRIYWQKDKKMVLTMMSGDLNIWPEYKNRTIFDITNNLSIVILALRPSDEGTYECVVQKYEKDAFKREHLAEVTLSVKAD
## Output 4.18
